- test_target: Antigen 1 (Ab1 target) expressed on HEK293 / HEK-293F cells
- Sequence (P06756 31-1048, chain 1 of 2): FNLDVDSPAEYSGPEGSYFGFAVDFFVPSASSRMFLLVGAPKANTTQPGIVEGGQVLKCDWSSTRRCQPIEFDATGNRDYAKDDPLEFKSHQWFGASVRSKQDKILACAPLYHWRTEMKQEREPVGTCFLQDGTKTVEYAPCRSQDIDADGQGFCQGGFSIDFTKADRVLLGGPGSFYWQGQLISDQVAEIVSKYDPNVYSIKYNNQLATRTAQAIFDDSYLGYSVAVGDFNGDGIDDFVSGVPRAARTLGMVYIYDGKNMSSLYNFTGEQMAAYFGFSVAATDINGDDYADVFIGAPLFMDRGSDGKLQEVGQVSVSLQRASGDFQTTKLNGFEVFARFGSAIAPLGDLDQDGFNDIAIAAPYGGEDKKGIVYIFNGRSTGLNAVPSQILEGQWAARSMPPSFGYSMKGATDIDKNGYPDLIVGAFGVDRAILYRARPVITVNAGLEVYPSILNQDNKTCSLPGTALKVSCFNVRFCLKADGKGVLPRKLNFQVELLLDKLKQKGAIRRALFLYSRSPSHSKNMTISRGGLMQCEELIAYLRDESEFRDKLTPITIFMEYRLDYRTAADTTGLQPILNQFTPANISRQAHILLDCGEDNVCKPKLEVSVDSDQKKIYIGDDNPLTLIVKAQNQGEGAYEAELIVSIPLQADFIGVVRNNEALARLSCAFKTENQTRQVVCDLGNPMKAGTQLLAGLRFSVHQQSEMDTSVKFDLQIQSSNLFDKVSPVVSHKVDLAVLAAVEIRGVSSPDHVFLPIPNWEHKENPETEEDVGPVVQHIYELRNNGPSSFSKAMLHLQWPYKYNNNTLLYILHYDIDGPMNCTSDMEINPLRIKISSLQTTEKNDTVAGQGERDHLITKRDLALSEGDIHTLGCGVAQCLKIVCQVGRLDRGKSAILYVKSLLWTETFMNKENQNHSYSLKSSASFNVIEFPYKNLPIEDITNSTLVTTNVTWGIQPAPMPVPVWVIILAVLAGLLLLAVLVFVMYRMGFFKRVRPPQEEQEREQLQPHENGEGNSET
- Sequence (P18564 22-788, chain 2 of 2, further chain): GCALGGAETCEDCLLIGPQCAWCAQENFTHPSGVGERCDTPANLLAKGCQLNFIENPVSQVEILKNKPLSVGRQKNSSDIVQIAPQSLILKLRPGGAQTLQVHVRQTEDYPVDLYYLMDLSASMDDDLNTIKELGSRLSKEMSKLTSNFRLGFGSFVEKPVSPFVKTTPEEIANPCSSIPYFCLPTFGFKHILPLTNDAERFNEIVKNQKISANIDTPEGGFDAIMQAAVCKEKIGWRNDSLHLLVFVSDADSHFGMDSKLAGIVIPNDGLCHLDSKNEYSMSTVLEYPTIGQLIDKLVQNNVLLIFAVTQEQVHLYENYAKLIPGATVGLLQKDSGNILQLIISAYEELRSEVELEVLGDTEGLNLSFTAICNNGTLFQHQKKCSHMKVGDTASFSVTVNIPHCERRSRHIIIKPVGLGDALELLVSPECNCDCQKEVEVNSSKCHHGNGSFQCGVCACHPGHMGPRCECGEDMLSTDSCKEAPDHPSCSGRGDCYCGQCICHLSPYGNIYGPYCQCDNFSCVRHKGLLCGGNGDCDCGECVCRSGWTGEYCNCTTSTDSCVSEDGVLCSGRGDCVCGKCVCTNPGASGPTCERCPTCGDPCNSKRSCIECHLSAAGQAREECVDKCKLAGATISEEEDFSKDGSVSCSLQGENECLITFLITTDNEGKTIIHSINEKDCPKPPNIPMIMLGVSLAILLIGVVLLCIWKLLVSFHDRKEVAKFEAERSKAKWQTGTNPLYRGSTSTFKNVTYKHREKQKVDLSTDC
- assay_procedure: saturation binding FACS, HEK293 cells
Could you mark each record Y if its EC50 fold change from Ab1 falls strictly under 50 fold, and N if it equals or exceeds it?

Worked set:
Vel-IPV-Ab1 Coil 117 (antibody, part only; not given: Ab1 heavy and light chains, part only) heavy, part: QGASTSVDELQAEVDQLEDENYAFKTKVAQLRKKVEKLGSIPVSLRSG light, part: QGASTTVAQLEEKVKTLRAENYEWKSEVQRLEEQVAQLGSIPVSLRSG :: N
Vel-IPV-Ab1 Coil 111 (antibody, part only; not given: Ab1 heavy and light chains, part only) heavy, part: QGASTSVDELQAEVDQLEDENYAGKTKVAQLRKKVEKLGSIPVSLRSG light, part: QGASTTVAQLEEKVKTLRAENYEFKSEVQRLEEQVAQLGSIPVSLRSG :: N
Vel-IPV-Ab1 Coil 124 (antibody, part only; not given: Ab1 heavy and light chains, part only) heavy, part: QGASTSVDELQAEVDQLEDENYASKTKVAQLRKKVEKLGSIPVSLRSG light, part: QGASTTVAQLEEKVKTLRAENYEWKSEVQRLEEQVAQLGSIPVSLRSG :: Y

Determine if Vel-IPV-Ab1 Coil 122 (antibody, part only; not given: Ab1 heavy and light chains, part only) heavy, part: QGASTSVDELQAEVDQLEDENYAYKTKVAQLRKKVEKLGSIPVSLRSG light, part: QGASTTVAQLEEKVKTLRAENYEAKSEVQRLEEQVAQLGSIPVSLRSG shows EC50 fold change from Ab1 strictly lower than 50 fold.
N

Determine if Vel-IPV-Ab1 Coil 107 (antibody, part only; not given: Ab1 heavy and light chains, part only) heavy, part: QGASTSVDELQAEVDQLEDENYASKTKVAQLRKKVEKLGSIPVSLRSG light, part: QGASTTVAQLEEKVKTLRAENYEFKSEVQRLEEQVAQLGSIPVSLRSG shows EC50 fold change from Ab1 strictly lower than 50 fold.
Y

Determine if Vel-IPV-Ab1 Coil 129 (antibody, part only; not given: Ab1 heavy and light chains, part only) heavy, part: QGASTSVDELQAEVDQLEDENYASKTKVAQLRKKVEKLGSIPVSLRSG light, part: QGASTTVAQLEEKVKTLRAENYEYKSEVQRLEEQVAQLGSIPVSLRSG shows EC50 fold change from Ab1 strictly lower than 50 fold.
Y

Determine if Vel-IPV-Ab1 Coil 115 (antibody, part only; not given: Ab1 heavy and light chains, part only) heavy, part: QGASTSVDELQAEVDQLEDENYAWKTKVAQLRKKVEKLGSIPVSLRSG light, part: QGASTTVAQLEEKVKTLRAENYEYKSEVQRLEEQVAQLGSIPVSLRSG shows EC50 fold change from Ab1 strictly lower than 50 fold.
N

Determine if Vel-IPV-Ab1 Coil 106 (antibody, part only; not given: Ab1 heavy and light chains, part only) heavy, part: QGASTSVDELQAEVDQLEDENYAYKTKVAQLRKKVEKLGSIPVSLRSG light, part: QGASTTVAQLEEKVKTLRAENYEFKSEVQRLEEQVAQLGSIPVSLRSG shows EC50 fold change from Ab1 strictly lower than 50 fold.
N

Determine if Vel-IPV-Ab1 Coil 110 (antibody, part only; not given: Ab1 heavy and light chains, part only) heavy, part: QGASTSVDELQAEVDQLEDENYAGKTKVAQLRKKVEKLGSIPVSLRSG light, part: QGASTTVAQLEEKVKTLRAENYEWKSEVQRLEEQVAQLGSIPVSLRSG shows EC50 fold change from Ab1 strictly lower than 50 fold.
N

Determine if Vel-IPV-Ab1 Coil 116 (antibody, part only; not given: Ab1 heavy and light chains, part only) heavy, part: QGASTSVDELQAEVDQLEDENYAAKTKVAQLRKKVEKLGSIPVSLRSG light, part: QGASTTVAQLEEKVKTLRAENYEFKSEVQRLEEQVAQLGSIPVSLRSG shows EC50 fold change from Ab1 strictly lower than 50 fold.
N

Determine if Vel-IPV-Ab1 Coil 121 (antibody, part only; not given: Ab1 heavy and light chains, part only) heavy, part: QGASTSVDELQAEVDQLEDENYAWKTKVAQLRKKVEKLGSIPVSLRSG light, part: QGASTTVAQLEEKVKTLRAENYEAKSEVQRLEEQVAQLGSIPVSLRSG shows EC50 fold change from Ab1 strictly lower than 50 fold.
N

Values compiled from patent US20240376200A1.
